readout.label: melting point

Incoming: Returns the measured melting point for the input compound. Input: COc1ccc2cc(-c3ccc(OCC(O)CNC(C)C)cc3)n(C)c(=O)c2c1 (stereo not given)
Outgoing: 140 to 142 °C

Incoming: // repeat for COc1cc2c3c(c1OC)C=NCC3c1ccccc1CC2 (stereo not given) and report
Outgoing: 131 to 132 °C

Incoming: // repeat for Cn1ncc2c1C(=O)Nc1cccnc1N2 and report
Outgoing: 304 to 305 °C

Incoming: // repeat for NC(=O)NCc1ccc(Nc2n[nH]c3ncnc(Nc4cccc(Cl)c4)c23)cc1 and report
Outgoing: > 280 °C

Incoming: // repeat for CC(C)OC(=O)c1cc(-n2c(=O)[nH]c(CF)c(F)c2=O)c(F)cc1Cl and report
Outgoing: 171 to 173 °C

Incoming: // repeat for CN1CCN(c2cc(Sc3ccc(Cl)cc3)nc(-c3ccccc3)n2)CC1 and report
Outgoing: 152 to 154 °C

Incoming: // repeat for COc1nc(N)nc2c1ncn2C1OC(CO)C(OC(=O)C(C)(C)C)C1O (stereo not given) and report
Outgoing: 113 to 115 °C

Incoming: // repeat for O=S(=O)(O)c1ccc(NCc2ccc(Cl)cc2)cc1 and report
Outgoing: > 270 °C

Incoming: // repeat for COc1ccc2cc3c(CN)nn(C)c3nc2c1 and report
Outgoing: 119 to 120 °C

Incoming: // repeat for Cc1ccnc(C(=O)c2[nH]c3ccc(Cl)cc3c2CC(=O)O)c1 and report
Outgoing: 230 to 231 °C

====

readout.label: melting point

Incoming: Returns the measured melting point for the input compound. Input: CC(=O)N(C)C(CCCC(=O)O)C(=O)N(C)c1c(I)cc(I)c(C(=O)O)c1I (stereo not given)
Outgoing: 194 to 204 °C

Incoming: // repeat for CCOn1nnnc1SC[PH](=O)O and report
Outgoing: 120 to 122 °C

Incoming: // repeat for CC1(C)Oc2ccc(C#N)cc2[C@@H](OC2=CC(=O)CC2)[C@@H]1O (relative stereo) and report
Outgoing: 154 to 156 °C

Incoming: // repeat for O=C1NCCc2ccc(OCCCCN3CCN(c4cccc5c4OCC5)CC3)nc2N1 and report
Outgoing: 72 to 73 °C

Incoming: // repeat for O=C1NC(=O)C(S(=O)(=O)c2ccccc2)S1 (stereo not given) and report
Outgoing: 130 to 133 °C

====

readout.label: melting point

Incoming: Returns the measured melting point for the input compound. Input: Cn1ccc(=O)c(CO)c1
Outgoing: 185 to 186 °C

Incoming: // repeat for CCCCCCCCNC(=O)Nc1sc(C(=O)OC(C)CCCCCC)c(C)c1C(=O)OC(C)(C)C (stereo unspecified) and report
Outgoing: 92 to 94 °C

Incoming: // repeat for COc1ccc2[nH]cc(CCc3nc4ccccc4c(=O)n3-c3ccccc3)c2c1 and report
Outgoing: 220 to 221 °C

Incoming: // repeat for Cn1cnc(S(=O)(=O)n2c(CCCC(=O)O)cc3cc(Cl)ccc32)c1 and report
Outgoing: 222 to 225 °C

Incoming: // repeat for CCOC(=O)c1c(C)nn(C)c1S(=O)(=O)N=c1nc2nc(C)cc(C)n2s1 and report
Outgoing: 167 to 168 °C

Incoming: // repeat for CCCCCCCCc1ccc(N=Nc2ccc(OC(=O)CCOCCCCCCC)cc2)cc1 and report
Outgoing: 42.1 °C

Incoming: // repeat for COC(=O)c1cc(Cl)c(Cl)c(Cl)c1 and report
Outgoing: 111 to 112 °C

Incoming: // repeat for CCCOc1ccc(-c2c(Cl)ncn2-c2ccc(S(C)(=O)=O)cc2)cc1 and report
Outgoing: 161 to 163 °C

Incoming: // repeat for COC(=O)N(C)c1cccc(-c2ccc3nnc(C)n3n2)c1 and report
Outgoing: 164 to 166 °C

Incoming: // repeat for Cc1cccc(-c2[nH]c(C(C)C)nc2-c2cccc(-c3ccc(C(=O)NC4CCOCC4)cc3)c2)n1 and report
Outgoing: 140 °C

Incoming: // repeat for COc1cccc(N2CCN(CCn3c(=O)[nH]c4cscc4c3=O)CC2)c1 and report
Outgoing: 184 to 186 °C

Incoming: // repeat for CC(=O)Nc1c(Cl)cc(C(C)=O)c2c1OCCO2 and report
Outgoing: 181 to 182 °C

Incoming: // repeat for CCCCCCC1OC1(C(=O)OCC)C(=O)OCC (stereo unspecified) and report
Outgoing: 58 to 60 °C

Incoming: // repeat for CCOC(=O)c1ccc(NCCOc2ccccc2)cc1 and report
Outgoing: 126 to 129 °C

Incoming: // repeat for CC(C)(CNC(=O)[C@H](O)[C@H](O)COC(=O)Cc1ccccc1Nc1c(Cl)cccc1Cl)SN=O and report
Outgoing: 57 to 59 °C

Incoming: // repeat for CCc1noc(-c2ncn(-c3cccc(O)c3)c2COC)n1 and report
Outgoing: 98 to 99 °C

Incoming: // repeat for CCc1nc2c(C)cc(C)nc2n1Cc1ccc2oc(-c3cccc(F)c3C(=O)O)c(Br)c2c1 and report
Outgoing: 191 to 194 °C

Incoming: // repeat for CC(C)(C)OC(=O)N(CC(=O)OCN1C(=O)CCC(N2C(=O)c3ccccc3C2=O)C1=O)C(=O)CN (stereo unspecified) and report
Outgoing: 178 to 181 °C

Incoming: // repeat for OC(c1ccc(F)cc1)(c1ccc(F)cc1)C1SCSCS1 and report
Outgoing: 124 to 125 °C

Incoming: // repeat for O=C(c1cccs1)c1cnn2c(-c3ccc(F)c(Br)c3)ccnc12 and report
Outgoing: 74 to 76 °C

Incoming: // repeat for CCOC(=O)CCCNc1ccc(OCC(C)(C)C)c(C#N)c1 and report
Outgoing: 88 °C

Incoming: // repeat for OC1CCCc2ccc(OCc3ccc4ccccc4n3)cc21 (stereo unspecified) and report
Outgoing: 113 to 115 °C

Incoming: // repeat for CCNC(=O)NC[C@H]1CN(c2ccc3c(c2)CCCc2cnoc2-3)C(=O)O1 and report
Outgoing: 193 to 196 °C

Incoming: // repeat for CCS(=O)(=O)c1cc(C(=O)NCC2CCCN2CC2CC2)c(OC)cc1N (stereo unspecified) and report
Outgoing: 181 °C

Incoming: // repeat for COC(=O)C(N)Cc1ccc(OCc2nc3ccc(OC)cc3n2C)cc1 (stereo unspecified) and report
Outgoing: 108 to 111 °C

Incoming: // repeat for C=CCn1c(C)c(C)c2cnnc(OCc3ccc(Cl)cc3Cl)c21 and report
Outgoing: 98 to 99 °C

Incoming: // repeat for CC12CCC(=O)C=C1CCC1C2CCC2(C)C(n3ccnn3)=CCC12 (stereo unspecified) and report
Outgoing: 118 to 120 °C

Incoming: // repeat for CCCCCOC(=O)Nc1ccc(CN2C(=O)CCc3c(CC4SC(=O)NC4=O)ccc(OC)c32)cc1 (stereo unspecified) and report
Outgoing: 98 to 102 °C

Incoming: // repeat for COC(=O)C(Cc1c[nH]c2ccccc12)NC(=S)c1ccc2c(c1)OCO2 (stereo unspecified) and report
Outgoing: 129 to 130 °C

Incoming: // repeat for COc1cc2nc(N3CCN(C(=O)CCCO)CC3)nc(N)c2cc1OC and report
Outgoing: 241 to 243 °C

Incoming: // repeat for COc1cc(N)c(Cl)cc1C(=O)NC1CCN(C(=O)OC(C)(C)C)CC1F (stereo unspecified) and report
Outgoing: 198 to 199 °C

Incoming: // repeat for O=C1NCN(c2ccccc2)C12CCN(C[C@@H]1CCc3ccccc3[C@H]1O)CC2 (relative stereo) and report
Outgoing: 204 to 205 °C

Incoming: // repeat for CON=C(N)Nc1nc(C)nc(OC)n1 and report
Outgoing: 142 °C

Incoming: // repeat for COc1ccc(-c2ocnc2-c2cc(OC)c(O)c(OC)c2)cc1F and report
Outgoing: 161 to 163 °C

Incoming: // repeat for CC1CCC2(CC1)OCCN2C(=O)C(Cl)Cl (stereo unspecified) and report
Outgoing: 119 to 120 °C

Incoming: // repeat for CC(NC(=O)c1cccc(C2(C)C(=O)Nc3cc(Cl)cc(Cl)c3C2=O)c1)c1ccccc1 (stereo unspecified) and report
Outgoing: 91 to 94 °C

Incoming: // repeat for O=C1CCCc2ccc(-c3ccccc3)cc21 and report
Outgoing: 67 °C

Incoming: // repeat for Cc1nn(CCO)c(C)c1Oc1cc(Cl)cc(Cl)c1 and report
Outgoing: 114 to 115 °C

Incoming: // repeat for O=C(O)C1CCN(c2nnc(NCc3ccc4c(c3)OCO4)c3ccncc23)CC1 and report
Outgoing: 138 to 140 °C

Incoming: // repeat for CCC(=O)C(=C1NCCCS1)[N+](=O)[O-] and report
Outgoing: 77.5 to 79.5 °C

Incoming: // repeat for CN(Cc1ccc(S(C)(=O)=O)s1)C(=O)C12CC3CC(CC(C3)C1)C2 and report
Outgoing: 114 to 116 °C
